# reported PBM binding z-score; entries follow
Tested on: RXRa DBDmut IVT, anti-RXR (DBD mutation: RXRa K156A/R161A, NR concentration 90 nM)
protocol-notes: PBM binding z-score (relative to random genomic background probes); higher = stronger binding; sequences stand for … in GC…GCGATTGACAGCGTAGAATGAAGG
measurement-label: PBM binding z-score

- GCTTGTAGATCAAAGTTAAGAAAGACTAAGCTAA: -0.0516
- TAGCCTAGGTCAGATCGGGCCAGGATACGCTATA: -0.775
- TCATATAGGTATAGGTGAAAGTCGAACGATATGA: 0.538
- ACAGACAGGTGATGTAGGTAACTCAGGCTATCAT: -0.0727
- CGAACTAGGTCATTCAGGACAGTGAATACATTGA: 2.77
- CCTCGGAGGACAACAGGAGGTGAGAGCTGCCAGA: -0.141
- CGTCCAAGGACAGCAGGTCAGTGAAAGCGACGTG: 0.0474
- CGAACGACGGCATGAGTTGATAGCAAATGCCGAT: -0.218
- CCTAGAAGGCCAGGGTCACTCAAGCATTTCGCTT: 0.637
- ACTGGTTGGTCAGCTGAGGTCACACACAATTCGG: 1.23
- CAAACTACGTCACCGGAAGGTCAAAGTCCGCATG: 0.765
- ATCTCTGGGTAAGACTCAGTTCAGTGAAGAACGC: 0.0786

This collection of values is drawn from the supplement of paper PMC6555819.
